Target: Ba/F3 EML4-ALK v1 I1171N/D1203N (Homo sapiens (Human), UniProt Q9HC35+Q9UM73, D1203N/I1171N)
Sequence (Q9UM73 other isoform, or with tags, fused parts or gaps I1171N/D1203N): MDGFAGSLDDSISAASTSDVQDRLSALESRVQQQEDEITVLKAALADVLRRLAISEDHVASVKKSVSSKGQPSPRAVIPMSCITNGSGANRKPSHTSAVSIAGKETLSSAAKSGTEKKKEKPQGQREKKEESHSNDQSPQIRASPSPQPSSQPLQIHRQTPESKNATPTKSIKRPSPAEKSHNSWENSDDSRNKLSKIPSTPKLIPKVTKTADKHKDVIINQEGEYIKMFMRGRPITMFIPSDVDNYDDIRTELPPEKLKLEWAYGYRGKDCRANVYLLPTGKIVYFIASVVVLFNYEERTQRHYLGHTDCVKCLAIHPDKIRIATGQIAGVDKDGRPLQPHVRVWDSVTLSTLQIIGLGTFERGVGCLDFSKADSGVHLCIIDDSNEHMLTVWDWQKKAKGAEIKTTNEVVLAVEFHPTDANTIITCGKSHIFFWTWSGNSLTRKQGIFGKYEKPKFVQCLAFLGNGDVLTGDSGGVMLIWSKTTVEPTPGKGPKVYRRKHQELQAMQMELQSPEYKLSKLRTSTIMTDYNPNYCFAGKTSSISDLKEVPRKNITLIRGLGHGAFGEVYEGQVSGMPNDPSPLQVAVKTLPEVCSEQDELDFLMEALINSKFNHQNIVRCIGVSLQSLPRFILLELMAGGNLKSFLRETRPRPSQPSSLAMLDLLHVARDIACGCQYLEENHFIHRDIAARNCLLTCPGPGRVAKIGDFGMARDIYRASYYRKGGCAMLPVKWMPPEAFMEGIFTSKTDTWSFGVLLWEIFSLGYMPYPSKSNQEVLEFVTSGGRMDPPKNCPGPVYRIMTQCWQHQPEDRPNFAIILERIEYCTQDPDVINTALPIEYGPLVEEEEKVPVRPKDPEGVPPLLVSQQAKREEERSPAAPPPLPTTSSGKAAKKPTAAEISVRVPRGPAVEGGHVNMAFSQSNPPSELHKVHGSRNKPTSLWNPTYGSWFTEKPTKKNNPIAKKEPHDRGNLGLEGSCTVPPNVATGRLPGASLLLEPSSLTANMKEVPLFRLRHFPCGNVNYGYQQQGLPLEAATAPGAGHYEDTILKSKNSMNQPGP
Assay: Ba/F3 cell proliferation assay, EML4-ALK v1 I1171N/D1203N
Settings: Ba/F3 stable cells, 72 hours, CellTiter-Glo
// reported IC50 per item

Examples from the recorded data:
{"compound": "CC(C)N(C)C(=O)c1nn(CC2CC2)c2c1Cc1cn(C)nc1-c1ccc(F)cc1[C@@H](C)Oc1cc-2cnc1N", "parameter measured": "IC50", "value measured": "50 to 500 nM"}
{"compound": "Cc1cc2n(n1)-c1c(F)cc(F)cc1[C@@H](C)Oc1cc(cnc1N)-c1c(C#N)nn(C)c1C2=O", "parameter measured": "IC50", "value measured": "0.1 to 50 nM"}
{"compound": "CCn1ncc2c1-c1cnc(N)c(c1)O[C@H](C)c1cc(F)ccc1-c1ncccc1C2=O", "parameter measured": "IC50", "value measured": "50 to 500 nM"}
{"compound": "C[C@H]1Oc2cc(cnc2N)-c2c(C#N)nn(C)c2C(=O)c2cccnc2-c2c(F)cc(F)cc21", "parameter measured": "IC50", "value measured": "0.1 to 50 nM"}
{"compound": "C[C@H]1Oc2cc(cnc2N)-c2c(c(C(=O)N3CCCC3)nn2CC2CC2)Cc2cn(C)nc2-c2ccc(F)cc21", "parameter measured": "IC50", "value measured": "50 to 500 nM"}
{"compound": "C[C@H]1Oc2cc(cnc2N)-c2c(C#N)nn(C(=O)N(C)C)c2Cc2cccnc2-c2c(F)cc(F)cc21", "parameter measured": "IC50", "value measured": "50 to 500 nM"}
{"compound": "CCn1nc(C(=O)N(C)C)c2c1-c1cnc(N)c(c1)O[C@H](C)c1cc(F)ccc1-c1ncccc1C2=O", "parameter measured": "IC50", "value measured": "50 to 500 nM"}
{"compound": "CCn1nc(C(=O)N(C)C)c2c1-c1cnc(N)c(c1)O[C@H](C)c1cc(F)ccc1-c1nn(C)cc1C2", "parameter measured": "IC50", "value measured": "0.1 to 50 nM"}

IN: Give the measured IC50 of "C[C@H]1Oc2cc(cnc2N)-c2c(c(C(=O)N(C)C)nn2C2CCC2)Cc2cn(C)nc2-c2ccc(F)cc21" .
OUT: 0.1 to 50 nM

IN: Give the measured IC50 of CC1CCCN1C(=O)c1nn(CC2CC2)c2c1Cc1cn(C)nc1-c1ccc(F)cc1[C@@H](C)Oc1cc-2cnc1N (some centres unmarked) .
OUT: 0.1 to 50 nM

IN: Give the measured IC50 of "CC(=O)c1nn(CC2CC2)c2c1Cc1cn(C)nc1-c1ccc(F)cc1[C@@H](C)Oc1cc-2cnc1N" .
OUT: 50 to 500 nM

----------
Target: Ba/F3 ETV6-TRKB (Homo sapiens, UniProt Q16620)
Sequence (Q16620 32-822 limits assumed, change not shown): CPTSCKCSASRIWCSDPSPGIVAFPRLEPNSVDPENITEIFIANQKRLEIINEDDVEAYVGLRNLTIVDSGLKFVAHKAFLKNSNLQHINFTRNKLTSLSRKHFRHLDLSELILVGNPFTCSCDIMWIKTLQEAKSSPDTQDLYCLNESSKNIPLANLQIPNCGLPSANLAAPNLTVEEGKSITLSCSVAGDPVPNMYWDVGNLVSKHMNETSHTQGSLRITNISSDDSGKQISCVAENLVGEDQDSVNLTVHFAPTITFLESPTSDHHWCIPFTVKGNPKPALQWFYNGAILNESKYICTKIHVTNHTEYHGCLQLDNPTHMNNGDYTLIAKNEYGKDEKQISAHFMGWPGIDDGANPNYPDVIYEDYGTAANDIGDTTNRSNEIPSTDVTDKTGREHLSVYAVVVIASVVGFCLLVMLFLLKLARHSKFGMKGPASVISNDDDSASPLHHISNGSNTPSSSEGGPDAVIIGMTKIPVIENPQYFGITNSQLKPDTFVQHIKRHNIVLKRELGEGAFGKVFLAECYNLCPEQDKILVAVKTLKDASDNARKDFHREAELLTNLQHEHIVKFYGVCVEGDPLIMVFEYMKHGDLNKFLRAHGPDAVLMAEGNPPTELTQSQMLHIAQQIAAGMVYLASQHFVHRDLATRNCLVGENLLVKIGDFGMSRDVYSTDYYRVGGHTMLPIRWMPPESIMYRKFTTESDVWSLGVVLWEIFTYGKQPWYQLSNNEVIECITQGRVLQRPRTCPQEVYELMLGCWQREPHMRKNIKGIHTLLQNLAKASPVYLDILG
Assay: Ba/F3 cell proliferation assay, ETV6-TRKB
Type: cell-based
Conditions: Ba/F3 stable cells, 72 hours, CellTiter-Glo; read-out: ETV6-TRKB IC50
// reported IC50 per item

Examples from the recorded data:
{"molecule": "Cc1cc2n(n1)-c1ccc(F)cc1[C@@H](C)Oc1cc(cnc1N)-c1c(c(C(=O)N(C)C)nn1C1CCC1)C2 [Example 67]", "IC50": "0.05 to 0.5 µM"}
{"molecule": "Cc1cc2n(n1)-c1ccc(F)cc1[C@@H](C)Oc1cc(cnc1N)-c1c(nn(C)c1C#N)C2=O [Example 19]", "IC50": "0.05 to 0.5 µM"}
{"molecule": "CC1CCCN1C(=O)c1nn(CC2CC2)c2c1Cc1cn(C)nc1-c1ccc(F)cc1[C@@H](C)Oc1cc-2cnc1N (stereo partly shown) [Example 31]", "IC50": "> 0.5 µM"}

IN: Give the measured IC50 of Cc1cc2n(n1)-c1ccc(F)cc1[C@@H](C)Oc1cc(cnc1N)-c1c(c(C(=O)N(C)C)nn1CC1CC1)C2 [Example 42] .
OUT: > 0.5 µM
